Items are presented alongside their recorded TGI.
Test system: SNB-75 CNS
Test: NCI tumour cell line growth inhibition, 48 h

Worked cases, TGI given:
compound="CC(C)CCCC(C)[C@H]1CC[C@H]2N=C(NCc3ccccc3)CCC[C@]12C (stereo partly specified)" meas_value="3.52 µM"
compound=CCCCC(=O)Nc1ccc2c(C)cc(-c3ccc(-c4cc(-c5ccc(C)cc5)cc(-c5ccc(-c6cc(C)c7ccc(NC(=O)CCCC)nc7n6)cc5)n4)cc3)nc2n1 meas_value="> 100 µM"
compound=Cc1nnc(Sc2nc(C#N)c(C#N)nc2Sc2nnc(C)s2)s1 meas_value="> 82.3 µM"
compound="CCCNC(=O)N1CC(CN2CCN(c3ccccc3)CC2)O/C1=N/C(=O)Nc1ccccc1 (stereo unspecified)" meas_value="> 100 µM"
compound=CN(C)c1ccc(N=C2C=CC(=O)c3ccccc32)cc1 meas_value="4.86 µM"

Next, consider the following compound.
# TGI (compound: `COc1cc(/C=N/NC2=NCCCCN2)ccc1O` ) is > 100 µM
